B1: VH:VL chains; a variant is named by its letters at X, in order (parent)
chain 1: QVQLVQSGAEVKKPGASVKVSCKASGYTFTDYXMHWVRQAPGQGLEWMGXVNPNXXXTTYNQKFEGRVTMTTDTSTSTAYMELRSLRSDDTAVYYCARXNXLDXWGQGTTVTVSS
chain 2: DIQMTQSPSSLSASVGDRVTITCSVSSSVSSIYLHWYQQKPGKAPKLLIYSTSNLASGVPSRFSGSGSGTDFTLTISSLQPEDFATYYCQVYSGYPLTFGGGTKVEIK

Variants of: B1
experimentalProtocol: yeast display scFab, FACS + sequencing
conditionDetails: with MET
This is one part of the list. The true hit rate is not given.
observable: antigen binding call

Worked cases, antigen binding call given:
In [3]: df
Out[3]:
   mutationlist  readoutvalue
0      YRKGSSGD         binds
1      VKGRSVGY    no binding
2      FRGRAAVD         binds
3      YRREGDWA    no binding
4      YRGESSGF         binds
5      VTGTGAAV    no binding
6      FAGGGDAV    no binding
7      VTGKGDGV    no binding

Name the reported antigen binding call value associated with the variant YAGEGDGA no binding

Name the reported antigen binding call value associated with the variant FRGRDAVF binds

Name the reported antigen binding call value associated with the variant YAAKSDGY no binding

Name the reported antigen binding call value associated with the variant FRGRDYGF no binding
